// data source = paper PMC9482650

Biological target: T1, SNTB1, Q13884
T1 sequence (Q13884 107-205, limits assumed, looked up): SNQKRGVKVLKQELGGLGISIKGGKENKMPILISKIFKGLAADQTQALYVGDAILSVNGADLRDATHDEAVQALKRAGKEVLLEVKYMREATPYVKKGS
Experiment: holdup assay
Design: key: below the threshold = too weak to quantify, mostly under pKd 3.1 to 4
Settings: plain residues with an end cap or a label only (N-terminal biotin on a linker: ahx)
Parameter: pKd. Scope: all listed entries.

[[record]]
binder = "GYDWGPATDL [TJP3, O95049]"
endpoint = "pKd"
recorded_value = 4.08

[[record]]
binder = "TVICWPGSLV [LNX2, Q8N448]"
endpoint = "pKd"
recorded_value = 4.1


Could you now look at the following binder, please?
Challenge: Requested read-out: pKd. Entry: RRRKRKRTYL [HPV49-L2, P36762]
Response given: 3.58
